- System: SW1990 cells
- assay procedure: MTT cell proliferation assay on SW1990 cells
- Type: cell-based
- conditions used: Homo sapiens, SW1990, 3 h
Collected IC50 values appear next to each entry.
Number in nM, nothing else.

Q: Name the recorded IC50 for CC(=O)c1ccc2[nH]c(C(=O)N3C[C@@H](CCl)c4c3cc(O)c3ccccc43)cc2c1 [compound 1] .
A: 1.4

Q: Entry to check: NCCCn1c(C(=O)Nc2ccc3[nH]c(C(=O)N4CC(CCl)c5c4cc(O)c4ccccc54)cc3c2)cc2ccccc21 (centres unmarked) [compound 2]
A: 32.1

====

- Tested on: SW1990 cells
- assay procedure: MTT cell proliferation assay on SW1990 cells
- Format: cell-based
- conditions used: Homo sapiens, SW1990, 12 h
measured attribute: IC50 (nM)
Number in nM, nothing else.

Q: What value of IC50 on SW1990 cells does CC(=O)c1ccc2[nH]c(C(=O)N3C[C@@H](CCl)c4c3cc(O)c3ccccc43)cc2c1 [compound 1] have?
A: 0.43

Q: Entry to check: NCCCn1c(C(=O)Nc2ccc3[nH]c(C(=O)N4CC(CCl)c5c4cc(O)c4ccccc54)cc3c2)cc2ccccc21 (centres unmarked) [compound 2]
A: 4.3
